Reported values of Cmax for individual entries
Test Name: Pharmacokinetic evaluation in mice
Type: in vivo
Measurement Setup: male, mouse, plasma, po; mice, p.o. 10 mg/kg
Report as a plain number; the unit ng/mL is understood.

[2H]C([2H])([2H])n1nc(-c2cccc(Nc3cc(NC(=O)C4CC4)ncc3C(=O)CC)c2OC)cc1P(C)(C)=O ... 2630
CCC(=O)c1cnc(NC(=O)C2CC2)cc1Nc1cccc(-c2cc(P(=O)(C3CC3)C3CC3)n(C)n2)c1OC ... 4250
CCC(=O)c1cnc(NC(=O)C2CC2)cc1Nc1cccc(-c2cc(P(C)(C)=O)n(C)n2)c1OC ... 1180

Next item in the queue.
Enquiry: Given the entry [2H]C([2H])([2H])NC(=O)c1nnc(NC(=O)C2CC2)cc1Nc1cccc(-c2cc(P(=O)(C3CC3)C3CC3)n(C)n2)c1OC , report its measured Cmax.
Return: 6560

---

Subject Of Test: TYK2 (Mus musculus (Mouse), UniProt Q9R117)
Sequence (Q9R117 whole entry): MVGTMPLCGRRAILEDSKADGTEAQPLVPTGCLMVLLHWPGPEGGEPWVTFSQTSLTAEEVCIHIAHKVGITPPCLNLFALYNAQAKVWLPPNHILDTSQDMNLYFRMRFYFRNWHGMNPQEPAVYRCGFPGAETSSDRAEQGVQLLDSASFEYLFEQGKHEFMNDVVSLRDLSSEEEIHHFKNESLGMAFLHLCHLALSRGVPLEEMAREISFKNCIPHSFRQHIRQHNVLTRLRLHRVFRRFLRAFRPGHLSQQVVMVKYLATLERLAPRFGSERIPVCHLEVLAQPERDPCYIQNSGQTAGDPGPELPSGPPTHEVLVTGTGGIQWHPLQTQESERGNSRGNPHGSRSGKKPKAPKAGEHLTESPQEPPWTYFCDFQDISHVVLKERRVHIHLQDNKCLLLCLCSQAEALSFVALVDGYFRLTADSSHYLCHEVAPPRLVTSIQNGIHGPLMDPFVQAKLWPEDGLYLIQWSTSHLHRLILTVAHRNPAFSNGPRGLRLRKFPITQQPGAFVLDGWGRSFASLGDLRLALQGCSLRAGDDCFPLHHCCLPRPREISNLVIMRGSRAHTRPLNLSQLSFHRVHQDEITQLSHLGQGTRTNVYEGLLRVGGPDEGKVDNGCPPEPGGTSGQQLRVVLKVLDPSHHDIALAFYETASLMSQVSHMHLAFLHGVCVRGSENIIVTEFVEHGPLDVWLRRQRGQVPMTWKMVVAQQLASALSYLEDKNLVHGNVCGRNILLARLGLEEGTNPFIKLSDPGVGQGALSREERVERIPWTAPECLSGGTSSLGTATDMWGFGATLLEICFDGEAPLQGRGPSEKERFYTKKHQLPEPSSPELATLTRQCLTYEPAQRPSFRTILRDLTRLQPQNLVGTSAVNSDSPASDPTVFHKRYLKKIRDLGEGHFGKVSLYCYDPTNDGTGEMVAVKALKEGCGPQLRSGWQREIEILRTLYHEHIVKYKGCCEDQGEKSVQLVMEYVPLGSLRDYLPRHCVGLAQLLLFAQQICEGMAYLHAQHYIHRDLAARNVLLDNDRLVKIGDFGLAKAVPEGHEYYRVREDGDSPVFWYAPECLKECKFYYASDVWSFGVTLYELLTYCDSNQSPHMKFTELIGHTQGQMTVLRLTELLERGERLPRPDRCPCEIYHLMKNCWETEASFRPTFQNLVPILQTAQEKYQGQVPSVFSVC
Test Name: Luciferase assay in L929 ISRE cells stimulated with IFN-α
Type: cell-based
Measurement Setup: 10 nM, IFN-α 100 ng/mL, read-out: Inhibitory activity % (10 nM)
Reported values of inhibition at 0.01 µM for individual entries
Report as a plain number; the unit % is understood.

Here are 3 compounds together with their reported answers.
CCC(=O)c1cnc(NC(=O)C2CC2)cc1Nc1cccc(-c2cc(P(C)(C)=O)n(C)n2)c1C#N ... 7
CCC(=O)c1cnc(NC(=O)C2CC2)cc1Nc1nccc(-c2cc(P(C)(C)=O)n(C)n2)c1OC ... 41
CCC(=O)c1cnc(NC(=O)C2CC2)cc1Nc1cccc(-c2nc(P(C)(C)=O)ns2)c1OC ... 0

Enquiry: Under TYK2 (Mus musculus (Mouse), UniProt Q9R117): inhibition at 0.01 µM value of CCC(=O)c1cnc(NC(=O)C2CC2)cc1Nc1cc(F)cc(-c2cc(P(C)(C)=O)n(C)n2)c1OC ?
Return: 25

---

Test Name: Pharmacokinetic evaluation in rats
Assay type: in vivo, rat
Measurement Setup: male, plasma, po; rat, p.o. 10 mg/kg
Reported values of Tmax for individual entries
Report as a plain number; the unit h is understood.

Here are 3 compounds together with their reported answers.
[2H]C([2H])([2H])NC(=O)c1nnc(NC(=O)C2CC2)cc1Nc1cccc(-c2cc(P(=O)(C3CC3)C3CC3)n(C)n2)c1OC ... 2.83
CCC(=O)c1cnc(NC(=O)C2CC2)cc1Nc1cccc(-c2cc(P(C)(C)=O)n(C)n2)c1OC ... 0.67
CCC(=O)c1cnc(NC(=O)C2CC2)cc1Nc1cccc(-c2cc(P(=O)(C3CC3)C3CC3)n(C)n2)c1OC ... 2.05

Enquiry: Given the entry [2H]C([2H])([2H])n1nc(-c2cccc(Nc3cc(NC(=O)C4CC4)ncc3C(=O)CC)c2OC)cc1P(C)(C)=O , report its measured Tmax.
Return: 1.83

---

Reported values of AUC for individual entries
Test Name: Pharmacokinetic evaluation in beagle dog
Type: in vivo
Measurement Setup: plasma, iv; beagle dog, i.v. 1 mg/kg
Report as a plain number; the unit µg·h/mL is understood.

CCC(=O)c1cnc(NC(=O)C2CC2)cc1Nc1cccc(-c2cc(P(=O)(C3CC3)C3CC3)n(C)n2)c1OC ... 9.24

Next item in the queue.
Enquiry: Given the entry [2H]C([2H])([2H])NC(=O)c1nnc(NC(=O)C2CC2)cc1Nc1cccc(-c2cc(P(=O)(C3CC3)C3CC3)n(C)n2)c1OC , report its measured AUC.
Return: 4.9
